# tgt: Tubulin (Bos taurus, UniProt Q6B856+Q862L2+Q862F3)
# methodSummary: Inhibition of tubulin assembly in bovine brain […] assessed as reduction in turbidity increase preincubated for 15 mins followed by GTP addition measured for 20 mins by spectrophotometric analysis
valueType: IC50 (nM)
Record the value in nM, omitting the unit from your answer.

Some molecules with known IC50 results, for comparison:
> print(dat)
                         moleculesmiles  unitstring  endpointresult
1   CCCCN(c1ccc(OC)cc1)c1ncnc2occ(C)c12          nM            1300
2     CCN(c1ccc(OC)cc1)c1ncnc2occ(C)c12          nM             970
3      COc1ccc(N(C)c2ncnc3occ(C)c23)cc1          nM            3300
4  COc1ccc(N(c2ncnc3occ(C)c23)C(C)C)cc1          nM            3000
5      CSc1ccc(N(C)c2ncnc3occ(C)c23)cc1          nM            1200

Read the next record carefully.
What the record says about `CCCN(c1ccc(OC)cc1)c1ncnc2occ(C)c12` : IC50 is 1100

###

# System: Tubulin (Rattus norvegicus)
# methodSummary: Induction of microtubule depolymerization in rat A10 cells at 2 times EC50 incubated for 18 hrs by indirect immunofluorescence analysis
Active and inactive are the calls of the source. The calls are words filed in the database; no cut-off is given here.
valueType: Activity

Some molecules with known Activity results, for comparison:
> print(dat)
                       moleculesmiles  endpointresult
1    CSc1ccc(N(C)c2ncnc3occ(C)c23)cc1          Active
2    COc1ccc(N(C)c2ncnc3occ(C)c23)cc1          Active
3  CCCN(c1ccc(OC)cc1)c1ncnc2occ(C)c12          Active
4    CCc1ccc(N(C)c2ncnc3occ(C)c23)cc1          Active
5   CCN(c1ccc(OC)cc1)c1ncnc2occ(C)c12          Active

Read the next record carefully.
Measured Activity (Tubulin (Rattus norvegicus)), entry `CCCCN(c1ccc(OC)cc1)c1ncnc2occ(C)c12` : Active

###

# Test system: HeLa
# methodSummary: Relative ratio of IC50 for human HeLa cells expressing wild type beta3 tubulin to IC50 for human HeLa cells
# Assay type: functional
Measured Ratio IC50, listed per entry for reference.
Respond with the number and no other words.

Some compounds with known Ratio IC50 results, for comparison:
> print(dat)
                      moleculesmiles   tgt  endpointresult
1   CCc1ccc(N(C)c2ncnc3occ(C)c23)cc1  HeLa             1.3
2  CCN(c1ccc(OC)cc1)c1ncnc2occ(C)c12  HeLa             0.9

What the record says about `CSc1ccc(N(C)c2ncnc3occ(C)c23)cc1` : Ratio IC50 is 0.9

What the record says about `COc1ccc(N(C)c2ncnc3occ(C)c23)cc1` : Ratio IC50 is 0.9

What the record says about `CCCN(c1ccc(OC)cc1)c1ncnc2occ(C)c12` : Ratio IC50 is 1

What the record says about `CCCCN(c1ccc(OC)cc1)c1ncnc2occ(C)c12` : Ratio IC50 is 1

###

Measured inhibition, listed per entry for reference.
# tgt: Tubulin (Bos taurus) (UniProt Q6B856+Q862L2+Q862F3)
# methodSummary: Inhibition of [3H]colchicine binding to tubulin in bovine brain homogenate at 5 uM incubated for 10 mins by DEAE-cellulose filter assay
# Format: tissue-based
Record the value in %, omitting the unit from your answer.

Some compounds with known inhibition results, for comparison:
> print(dat)
                         moleculesmiles                                       tgt   valuetype  unitstring  endpointresult
1      CSc1ccc(N(C)c2ncnc3occ(C)c23)cc1  Tubulin (Bos taurus) (UniProt Q6B856+Q862L2+Q862F3)  inhibition           %              94
2   CCCCN(c1ccc(OC)cc1)c1ncnc2occ(C)c12  Tubulin (Bos taurus) (UniProt Q6B856+Q862L2+Q862F3)  inhibition           %              87
3     CCN(c1ccc(OC)cc1)c1ncnc2occ(C)c12  Tubulin (Bos taurus) (UniProt Q6B856+Q862L2+Q862F3)  inhibition           %              95
4      COc1ccc(N(C)c2ncnc3occ(C)c23)cc1  Tubulin (Bos taurus) (UniProt Q6B856+Q862L2+Q862F3)  inhibition           %              96
5  COc1ccc(N(c2ncnc3occ(C)c23)C(C)C)cc1  Tubulin (Bos taurus) (UniProt Q6B856+Q862L2+Q862F3)  inhibition           %              47

Read the next record carefully.
What the record says about `CCCN(c1ccc(OC)cc1)c1ncnc2occ(C)c12` : inhibition is 92

###

# tgt: Tubulin (Bos taurus) (UniProt Q6B856+Q862L2+Q862F3)
# methodSummary: Displacement of [3H]colchicine from tubulin in bovine brain homogenate at 1 uM incubated for 10 mins by DEAE-cellulose filter assay
# Format: tissue-based
valueType: inhibition

Some compounds with known inhibition results, for comparison:
> print(dat)
                        moleculesmiles   valuetype  endpointresult
1   CCCN(c1ccc(OC)cc1)c1ncnc2occ(C)c12  inhibition             75%
2     COc1ccc(N(C)c2ncnc3occ(C)c23)cc1  inhibition             71%
3  CCCCN(c1ccc(OC)cc1)c1ncnc2occ(C)c12  inhibition             61%

What the record says about `CCN(c1ccc(OC)cc1)c1ncnc2occ(C)c12` : inhibition is 84%

What the record says about `CSc1ccc(N(C)c2ncnc3occ(C)c23)cc1` : inhibition is 79%
